# Test system: Pseudomonas aeruginosa
# Experiment Description: Growth inhibition of Pseudomonas aeruginosa PA14 after 24 hrs
# Type: functional, organism-based
# Condition Set: PA14, 24 h
pIC50: −log10 of the molar value.
Measurement Type: pIC50

Completed entries (count: 2):
>>> measured_value("CCCCCC[C@H](CCCCC[C@@H](O)C(N)=O)OC(=O)[C@@H]1CCCCN1C(=O)c1ccccc1O")
"< 3.60"
>>> measured_value("CCCCCC[C@H](CCCCC[C@@H](O)C(N)=O)OC(=O)[C@@H]1CC=CN1C(=O)c1ccccc1O")
"6.89 to 7.17"

# pIC50 of CCCCCC[C@H](CCCCC[C@@H](O)C(N)=O)NC(=O)[C@@H]1CC=CN1C(=O)c1ccccc1O = < 3.60
